Where these numbers come from: paper PMC9233891

- Tested on: ancestral SARS-CoV-2
- Test details: microbe, parasite or virus in culture
- Type: cell-based
- Cond: Severe acute respiratory syndrome coronavirus 2, Vero, 24 h, read-out: IC50, inhibition of SARS-CoV-2 infection

Molecule	IC50 [µM]
CCC(CC)COC(=O)[C@H](C)N[P@](=O)(OC[C@H]1O[C@@](C#N)(c2ccc3c(N)ncnn23)[C@H](O)[C@@H]1O)Oc1ccccc1 [remdesivir]	4.67
CCN(CC)CCCC(C)Nc1ccnc2cc(Cl)ccc12 (centres unmarked) [chloroquine]	5.56
